The listing below reports IC50 for molecules tested on Mu-type opioid receptor (Cavia porcellus, UniProt P97266).
Sequence (P97266 whole entry): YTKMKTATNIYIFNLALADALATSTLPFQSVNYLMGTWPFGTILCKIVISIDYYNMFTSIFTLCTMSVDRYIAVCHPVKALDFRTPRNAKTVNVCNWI

Input: IC50 for CC[C@]12c3c4ccc(O)c3O[C@H]1C(=O)CC[C@@]2(O)[C@H](N(C)CC1CC1)C4 ?
Output: > 1000 nM

Input: IC50 for CN(CC1CC1)[C@@H]1Cc2ccc(O)c3c2[C@@]2(CCO3)CC(=O)CC[C@@]12O ?
Output: > 1000 nM
